Biological target: Glutamate NMDA receptor; Grin1/Grin2c (Rattus norvegicus) (UniProt P35439+Q00961)
Test: Antagonist activity at rat recombinant NR1/NR2C receptor expressed in Xenopus laevis oocytes assessed as inhibition of glutamate/glycine-induced current at 3 uM by two electrode voltage clamp method relative to control
Assay type: functional, cell-based
Details: Oocyte
readout.label: % response
Value and unit, in that order.

CS(=O)(=O)Nc1ccc(CCC(=O)NNC(=S)Nc2ccc(Cl)c(Cl)c2)cc1 : 94%
CS(=O)(=O)Nc1ccc(CCC(=O)N2CCN(c3ccc(Cl)c(Cl)c3)CC2)cc1 : 100%
CS(=O)(=O)Nc1ccc(CCC(=O)NCCCNc2ccc(Cl)c(Cl)c2)cc1 : 90%
CS(=O)(=O)Nc1ccc(OCC(=O)NC/C=C/c2ccc(Cl)c(Cl)c2)cc1 : 95%
CS(=O)(=O)Nc1ccc(CCC(=O)NNC(=O)c2ccc(Cl)c(Cl)c2)cc1 : 97%

Consider the compound `CS(=O)(=O)Nc1ccc(OCC(=O)NCCCNc2ccc(Cl)c(Cl)c2)cc1` and give its measured % response.
97%

---

Biological target: Glutamate NMDA receptor; Grin1/Grin2b (Rattus norvegicus) (UniProt P35439+Q00960)
Experiment: Antagonist activity at rat recombinant NR1/NR2B receptor expressed in Xenopus laevis oocytes assessed as inhibition of glutamate/glycine-induced current at 3 uM by two electrode voltage clamp method relative to control
Assay type: functional, cell-based
Settings: Oocyte
% response vs 20%: at or above is 1, below is 0.

CS(=O)(=O)Nc1ccc(CCC(=O)NNC(=O)Nc2ccc(Cl)c(Cl)c2)cc1 : 0
CS(=O)(=O)Nc1ccc(OCC(=O)N2CCN(c3ccc(Cl)c(Cl)c3)CC2)cc1 : 0
CS(=O)(=O)Nc1ccc(CCC(=O)NNCCc2ccc(Cl)c(Cl)c2)cc1 : 1
CS(=O)(=O)Nc1ccc(CCC(=O)NNC(=S)Nc2ccc(Cl)c(Cl)c2)cc1 : 0
CS(=O)(=O)Nc1ccc(CCCN2CCN(c3ccc(Cl)c(Cl)c3)C2=O)cc1 : 0

Has `CS(=O)(=O)Nc1ccc(OCC(=O)NC/C=C/c2ccc(Cl)c(Cl)c2)cc1` a recorded % response greater than or equal to 20%?
0

---

Target: Glutamate NMDA receptor; Grin1/Grin2c (Rattus norvegicus) (UniProt P35439+Q00961)
Assay: Antagonist activity at rat recombinant NR1/NR2C receptor expressed in Xenopus laevis oocytes assessed as inhibition of glutamate/glycine-induced current at 3 uM by two electrode voltage clamp method relative to control
Type: functional, cell-based
Conditions: Oocyte
Measured % response of individual entries
Lab book: enter the figure in %, no units written.

// solved cases for % response follow
CS(=O)(=O)Nc1ccc(OCCNCC(=O)Nc2ccc(Cl)c(Cl)c2)cc1 : 94
CS(=O)(=O)Nc1ccc(CCCNCCNc2ccc(Cl)c(Cl)c2)cc1 : 104
CS(=O)(=O)Nc1ccc(CCC(=O)NNCCc2ccc(Cl)c(Cl)c2)cc1 : 97
CS(=O)(=O)Nc1ccc(CCC(=O)NC/C=C/c2ccc(Cl)c(Cl)c2)cc1 : 95
CS(=O)(=O)Nc1ccc(OCCN2CCN(c3ccc(Cl)c(Cl)c3)C2=O)cc1 : 98

Consider the compound `CS(=O)(=O)Nc1ccc(OCC(=O)N2CCN(c3ccc(Cl)c(Cl)c3)CC2)cc1` and give its measured % response.
94

Consider the compound `CS(=O)(=O)Nc1ccc(CCC(=O)NNC(=O)Nc2ccc(Cl)c(Cl)c2)cc1` and give its measured % response.
96

Consider the compound `CS(=O)(=O)Nc1ccc(CCCN2CCN(c3ccc(Cl)c(Cl)c3)C2=O)cc1` and give its measured % response.
97

Consider the compound `CS(=O)(=O)Nc1ccc(OCC(=O)NCCCc2ccc(Cl)c(Cl)c2)cc1` and give its measured % response.
96

Consider the compound `CS(=O)(=O)Nc1ccc(OCC(=O)NCCSc2ccc(Cl)c(Cl)c2)cc1` and give its measured % response.
95
